Reference source: PubChem BioAssay AID1963968

# Tested on: 945468-187-T-J3-PDC spheroids with HUVEC/MSC, viability;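 further: spheroids exposed to agents for 7 days before viability read; 100% = DMSO vehicle control viability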
# assay_method_text: Anticancer human tumor 945468-187-T-J3-PDC patient-derived rectal carcinoma cell line growth inhibition [PI3K]
# measurement_parameters: second compound 0.1 µM; first compound 0.00949 µM; active compounds read low
Please go through the items and note down their viability, T/C.
Reply numerically in %, unit not repeated.

What value of viability, T/C has been reported for the following molecule? Cn1cnc2c(F)c(Nc3ccc(Br)cc3Cl)c(C(=O)NOCCO)cc21 + CC(Nc1ncnc2nc[nH]c12)c1cc2cccc(Cl)c2c(=O)n1-c1ccccc1
96

What value of viability, T/C has been reported for the following molecule? Cn1cnc2c(F)c(Nc3ccc(Br)cc3Cl)c(C(=O)NOCCO)cc21 + CC(Nc1ccc2c(c1)OCCn1cc(N3C(=O)OCC3C(F)F)nc1-2)C(N)=O
114

What value of viability, T/C has been reported for the following molecule? Cn1cnc2c(F)c(Nc3ccc(Br)cc3Cl)c(C(=O)NOCCO)cc21 + COc1c(OCCCN2CCOCC2)ccc2c3n(c(=NC(=O)c4cnc(N)nc4)nc12)CCN3
42.2

What value of viability, T/C has been reported for the following molecule? Cn1cnc2c(F)c(Nc3ccc(Br)cc3Cl)c(C(=O)NOCCO)cc21 + Cc1nc(NC(=O)N2CCCC2C(N)=O)sc1-c1ccnc(C(C)(C)C(F)(F)F)c1
113
